# measurementTarget: Kallikrein-5 (Homo sapiens)
# Sequence (Q9Y337 whole entry): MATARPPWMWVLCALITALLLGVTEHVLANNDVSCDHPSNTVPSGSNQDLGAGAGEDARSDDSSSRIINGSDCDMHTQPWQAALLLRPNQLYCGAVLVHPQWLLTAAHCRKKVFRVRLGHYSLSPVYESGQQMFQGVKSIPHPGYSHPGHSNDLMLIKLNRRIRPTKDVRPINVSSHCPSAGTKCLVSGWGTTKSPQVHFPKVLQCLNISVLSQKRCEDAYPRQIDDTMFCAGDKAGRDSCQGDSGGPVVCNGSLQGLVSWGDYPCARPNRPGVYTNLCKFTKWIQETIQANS
Bridge positions count the residues as written; N and C are the ends. Peptide text beside a SMILES is read from it.
Listed here: items and their measured Ki.

- molecule: "CC[C@H](C)[C@@H]1NC(=O)[C@@H]2CSSC[C@H](NC(=O)[C@H]([C@@H](C)CC)NC(=O)[C@@H]3CCCN3C(=O)[C@@H]3CCCN3C(=O)[C@H]([C@@H](C)CC)NC(=O)[C@H](CO)NC(=O)[C@H](CCCNC(=N)N)NC1=O)C(=O)N[C@@H](CC(N)=O)C(=O)N1CCC[C@H]1C(=O)N[C@@H](CC(N)=O)C(=O)NCC(=O)N[C@@H](Cc1c[nH]c3ccccc13)C(=O)N2 (cyclo(CIRSIPPICNPNGW); disulfide 1-9)"
  relationQualifier: "="
  Ki, nM: 362
- molecule: "CC[C@H](C)[C@@H]1NC(=O)[C@@H]2CCCN2C(=O)[C@@H]2CCCN2C(=O)[C@H]([C@@H](C)CC)NC(=O)[C@H](CO)NC(=O)[C@H](CCCNC(=N)N)NC(=O)[C@H]([C@@H](C)O)NC(=O)[C@@H]2CSSC[C@H](NC1=O)C(=O)N[C@@H](CC(N)=O)C(=O)N1CCC[C@H]1C(=O)N[C@@H](CC(N)=O)C(=O)NCC(=O)N[C@@H]([C@@H](C)O)C(=O)N2 (cyclo(CNPNGTCTRSIPPI); disulfide 1-7)"
  relationQualifier: "="
  Ki, nM: 2.1
- molecule: "CC[C@H](C)[C@@H]1NC(=O)[C@@H]2CCCN2C(=O)[C@@H]2CCCN2C(=O)[C@H](CC(N)=O)NC(=O)[C@H](CO)NC(=O)[C@H](CCCNC(=N)N)NC(=O)[C@H]([C@@H](C)O)NC(=O)[C@@H]2CSSC[C@H](NC1=O)C(=O)N[C@@H](CC(N)=O)C(=O)N1CCC[C@H]1C(=O)N[C@@H](CC(N)=O)C(=O)NCC(=O)N[C@@H]([C@@H](C)O)C(=O)N2 (cyclo(CNPNGTCTRSNPPI); disulfide 1-7)"
  relationQualifier: "="
  Ki, nM: 5.2
- molecule: "CC[C@H](C)[C@@H]1NC(=O)[C@@H]2CSSC[C@H](NC(=O)[C@H]([C@@H](C)CC)NC(=O)[C@@H]3CCCN3C(=O)[C@@H]3CCCN3C(=O)[C@H](CCCCN)NC(=O)[C@H](CO)NC(=O)[C@H](CCCNC(=N)N)NC1=O)C(=O)N[C@@H](CC(N)=O)C(=O)N1CCC[C@H]1C(=O)N[C@@H](CC(N)=O)C(=O)NCC(=O)N[C@@H](Cc1c[nH]c3ccccc13)C(=O)N2 (cyclo(CIRSKPPICNPNGW); disulfide 1-9)"
  relationQualifier: ">"
  Ki, nM: 50000
